Quick reference: normalized growth of the listed items.
Test: chemical genetic growth profiling, strain panel (AID 1159580);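 note: tested at 20 µM; growth read once vehicle control cultures reached saturation at 30 °C; 1 = growth at the plate median or of vehicle wells; lower values mean less growth of the strain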
Settings: S. cerevisiae deletion strains, growth OD, locus YLR357W, strain rsc2, stronger effect = lower value
Out of some 5,500 compounds screened, about 2,000 (36%) were called active. Not shown: some 18% with an inconclusive outcome. This is one part of the list.

compound	normalized growth
COC1=CC(=O)C[C@@H](C)[C@]12Oc1c(Cl)c(OC)cc(OC)c1C2=O	1.01 (inactive)
Cc1[nH]c(C)c(Cl)c(=O)c1Cl	1 (inactive)
CCC(=O)O[C@H]1CCC2C3CCC4=CC(=O)CC[C@]4(C)C3CC[C@@]21C (stereo partly specified)	0.944 (inactive)
NCCSSCCN	0.979 (inactive)
CC(N)CCCC(C)(C)O (stereo unspecified)	0.981 (inactive)
CC(C[N+](C)(C)C)OC(N)=O (stereo unspecified)	1.02 (inactive)

* * *

Experiment: chemical genetic growth profiling, strain panel (AID 1159580);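 note: tested at 20 µM; growth read once vehicle control cultures reached saturation at 30 °C; 1 = growth at the plate median or of vehicle wells; lower values mean less growth of the strain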
Conditions: S. cerevisiae deletion strains, growth OD, locus YDR052C, strain DBF4, stronger effect = lower value
Out of some 5,500 compounds screened, about 2,000 (36%) were called active. Not shown: some 18% with an inconclusive outcome. Some of the results follow.
readout-type: normalized growth

chem-smiles	reported-measurement
O=C(Oc1ccc(C(F)(F)F)cc1[N+](=O)[O-])c1cccc(Cl)c1	0.944
Cc1ccccc1C(=O)Oc1ccc(C(F)(F)F)cc1[N+](=O)[O-]	0.969
O=C(NNc1ccccc1F)c1ccno1	0.979
CC(C)(C)CN/C(C#N)=C(/C#N)NCc1cccc(Cl)c1	0.996

* * *

Assay: chemical genetic growth profiling, strain panel (AID 1159580);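 note: tested at 20 µM; growth read once vehicle control cultures reached saturation at 30 °C; 1 = growth at the plate median or of vehicle wells; lower values mean less growth of the strain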
Settings: S. cerevisiae deletion strains, growth OD, locus YNL224C, strain SQS1, stronger effect = lower value
Hit rate of the full screen: of about 5,500 compounds, about 2,000 (36%) were called active. Inconclusive results (about 18%) are left out. The list shows a part of the results.
Quick reference: normalized growth of the listed items.
readout-type: normalized growth

compound	readout-type	reported-measurement
Oc1ccc(C2CNCCc3c2cc(O)c(O)c3Cl)cc1 (configuration not stated)	normalized growth	1.06
CC(C)(C)NC[C@H](O)COc1nsnc1N1CCOCC1	normalized growth	0.988
c1ccc2sc(C3(N4CCCCC4)CCCCC3)cc2c1	normalized growth	1
CNCC(O)c1ccc(O)c(O)c1 (configuration not stated)	normalized growth	1.02
CN1CCc2cc(Cl)c(O)cc2[C@@H](c2ccccc2)C1	normalized growth	1.01
O=C1NCN(c2ccccc2)C12CCN(CC1COc3ccccc3O1)CC2 (configuration not stated)	normalized growth	1
CC(CCc1ccccc1)NC(C)C(O)c1ccc(O)cc1 (configuration not stated)	normalized growth	1.01
CC1=C(CC(=O)O)c2cc(F)ccc2/C1=C\c1ccc(S(C)(=O)=O)cc1	normalized growth	0.99
OC[C@H]1O[C@@H](n2cnc3c(Nc4ccccc4)ncnc32)C(O)[C@H]1O (some centres not stated)	normalized growth	0.979
C[C@]12C[C@H](O)[C@H]3[C@@H](CCC4=CC(=O)CC[C@@]43C)[C@@H]1CC[C@@H]2C(=O)CO	normalized growth	1.02
CCN(CC)CC#CCOC(=O)C(O)(c1ccccc1)C1CCCCC1 (configuration not stated)	normalized growth	1.02
C[C@@H](NCCc1ccc(O)cc1)[C@@H](O)c1ccc(O)cc1	normalized growth	0.991
CCCCNc1cc(C(=O)O)cc(S(N)(=O)=O)c1Oc1ccccc1	normalized growth	0.999
C=Cc1c2[nH]c(c1C)Cc1[nH]c(c(C)c1C=C)C=C1N=C(C=c3[nH]c(c(C)c3CCC(=O)O)=C2)C(CCC(=O)O)=C1C	normalized growth	1.01
CN1CCC(=C2c3ccccc3CC(=O)c3sccc32)CC1	normalized growth	1.02
Cc1cccc(C)c1OCC(C)N (configuration not stated)	normalized growth	1
C[C@H]1O[C@@H](n2cc(F)c(=O)[nH]c2=O)[C@H](O)[C@@H]1O	normalized growth	0.984
CC(C)(O)C1C2OC(=O)C1C1(O)CC3OC34C(=O)OC2C14C (configuration not stated) (tested in a mixture with another compound)	normalized growth	1
Clc1ccc(N2CCN(Cc3c[nH]c4ncccc34)CC2)cc1	normalized growth	0.987
NNC(N)=O	normalized growth	1
CN1CCc2c(cc(O)c(O)c2Cl)C(c2cccc(Cl)c2)C1 (configuration not stated)	normalized growth	1.01
C=CCN1CCc2cc(O)c(O)cc2C(c2ccccc2)C1 (configuration not stated)	normalized growth	1
